# method: passive permeability, PAMPA, ADME assay (AID 1508612)
# conditionInfo: pH 7.4, 30.0 min, 50.0 µM
observable: Papp (×10⁻⁶ cm/s)
One number for each entry, in ×10⁻⁶ cm/s.

molecule: CSc1nn(Cc2cccc(C)c2)c(N)c1S(=O)(=O)c1ccccc1
unitDescriptor: ×10⁻⁶ cm/s
reading: 516
//
molecule: CC1CCN(S(=O)(=O)c2ccc3c(c2)C(C)(C)C(=O)N3CC(=O)NCc2ccco2)CC1
unitDescriptor: ×10⁻⁶ cm/s
reading: 584
//
molecule: COC(=O)c1ccc2c(c1)nc1n2[C@@H](CNC(C)=O)COC1
unitDescriptor: ×10⁻⁶ cm/s
reading: 4.45
//
molecule: NC(=O)C1CCN(c2nc(-c3ccccc3Br)cs2)CC1
unitDescriptor: ×10⁻⁶ cm/s
reading: 462
//
molecule: Cc1sc2c(c1C)C(c1ccc(Cl)cc1)=N[C@@H](CC(=O)Nc1ccc(OCCOCCOCCOCCNc3cccc4c3C(=O)N(C3CCC(=O)NC3=O)C4=O)cc1)c1nnc(C)n1-2 (stereo not given in full)
unitDescriptor: ×10⁻⁶ cm/s
reading: 4.9
//
molecule: Cc1ccc(C(=O)N2CCc3sc(C(=O)NC(C)c4ccccc4)cc3C2)cc1 (stereo not given)
unitDescriptor: ×10⁻⁶ cm/s
reading: 799

List the reported Papp of each molecule below.
1. NC(=O)C1CCN(c2nc(-c3cccs3)cs2)CC1
2. COc1ncc(-c2n[nH]c3c2CC(=O)N(c2ccccc2)C3)cn1
3. COc1ccc(NC(=O)c2c(C)cccc2C)cc1[S+](=O)([O-])N(C)C

195
33.5
196

---

# method: passive permeability, PAMPA, ADME assay (AID 1508612)
# conditionInfo: pH 7.4, 30.0 min, 50.0 µM
We use 400 ×10⁻⁶ cm/s as the dividing line for Papp: on or above the line is y, below is n.

compound: O=c1[nH]cnc2c1ccn2C1OC(CO)C(O)C1O (stereo not given)
assignedLabel: n
--
compound: NC(=O)C1CCN(c2nc(-c3ccc4c(c3)OCO4)cs2)CC1
assignedLabel: y
--
compound: N#CC1(c2ccc(NC(=O)c3cccnc3NCc3ccncc3)cc2)CCCC1
assignedLabel: y
--
compound: COc1cccc(C(=O)Nc2nc(-c3nnn(-c4ccccc4C(F)(F)F)c3C)ns2)c1
assignedLabel: n
--
compound: N#Cc1cccc(NC(=O)c2sc3nc4c(cc3c2N)N2CCC4CC2)c1
assignedLabel: y
--
compound: CC1CN(c2ccc(Nc3nc(-c4ccncc4)nc4ccccc34)cc2F)CC(C)O1 (stereo not given)
assignedLabel: y

Next up:
For this compound, is measured Papp 400 ×10⁻⁶ cm/s or higher? "Clc1ccc2ncc(-c3cccc(NC4CCNCC4)n3)n2c1"
y

---

Assign Papp to each entry below.
# method: passive permeability, PAMPA, ADME assay (AID 1508612)
# conditionInfo: pH 7.4, 30.0 min, 50.0 µM
Numbers only, in ×10⁻⁶ cm/s.

List the reported Papp of each molecule below.
1. COc1ccc(C(=O)NC2CCN(c3cnn(CC4CC4)c(=O)c3)CC2)c(OC)n1
2. Cc1ccc(-c2cc(C(=O)NCc3cnn(C)c3)c3cc(Br)ccc3n2)cc1
3. CC(=O)c1cccc(-c2csc3ncnc(Sc4nnnn4C)c23)c1
4. NC(=O)C1CCN(c2cc(-c3ccc4c(c3)OCCCO4)ncn2)CC1
5. CCOc1ccc(NC(=O)CSC2=Nc3ccccc3C3=NC(CC(=O)NCc4cccs4)C(=O)N23)cc1 (stereo not given)
6. COc1ccnc(NC(=S)N2CCN(c3cc(C(F)(F)F)cc(C(F)(F)F)c3)CC2)c1

550
24.2
239
37
25
373

---

# method: passive permeability, PAMPA, ADME assay (AID 1508612)
# conditionInfo: pH 7.4, 30.0 min, 50.0 µM
Response field label takes rule met when Papp is strictly below 800 ×10⁻⁶ cm/s and rule not met in all other cases.

Quick check: does "Clc1ccccc1Nc1nc(-c2ccncc2)nc2ccccc12" have Papp under 800 ×10⁻⁶ cm/s?
rule not met

Quick check: does "CC(=O)c1c(C)[nH]c(C(=O)Nc2ccc(C)c(S(=O)(=O)Nc3ccc(Br)cc3)c2)c1C" have Papp under 800 ×10⁻⁶ cm/s?
rule met

Quick check: does Cc1ccc(C)c(CN2C(=O)c3ccccc3S(=O)c3ccc(C(=O)N4CCN(c5ccccc5F)CC4)cc32)c1 (stereo not given) have Papp under 800 ×10⁻⁶ cm/s?
rule not met

Quick check: does "Fc1cc(Nc2nc(-c3ccncc3)nc3ccccc23)ccc1-c1cncnc1" have Papp under 800 ×10⁻⁶ cm/s?
rule met

Quick check: does "Cc1cc(/C=C2/C(=O)Nc3ccccc32)cc(C)c1O" have Papp under 800 ×10⁻⁶ cm/s?
rule not met

Quick check: does "O=C(Nc1ccc(S(=O)(=O)Nc2nccs2)cc1)c1cc(-c2ccccc2)nc2ccccc12" have Papp under 800 ×10⁻⁶ cm/s?
rule met

Quick check: does "COc1ccc(C2=Nn3c([n+](C)c4ccccc43)SC2)cc1" have Papp under 800 ×10⁻⁶ cm/s?
rule met

Quick check: does "O=c1c(-c2ccc(O)cc2)coc2cc(O)ccc12" have Papp under 800 ×10⁻⁶ cm/s?
rule met

Quick check: does "Cc1ccc(C(=O)N2CCc3c(nc4cc(-c5ccccc5)[nH]n4c3=O)C2)cn1" have Papp under 800 ×10⁻⁶ cm/s?
rule met

---

# method: passive permeability, PAMPA, ADME assay (AID 1508612)
# conditionInfo: pH 7.4, 30.0 min, 50.0 µM
observable: Papp (×10⁻⁶ cm/s)
Give bare numbers, in ×10⁻⁶ cm/s.

// known answers, use as guide
compound: CC1Oc2cc3c(-c4c(O)cc(O)c5c(O)c6c(cc45)OC(C)C(C)C6=O)c(O)cc(O)c3c(O)c2C(=O)C1C (stereo not given)
observable: Papp
reading: 8.5
//
compound: O=C(Nc1nc(-c2ccccc2)cs1)c1ccncc1NS(=O)(=O)c1ccccc1F
observable: Papp
reading: 468

With those in mind, consider the next compound.
Measured Papp, "O=C(O)c1ccncc1Nc1nn(CCN2CCC(F)(F)CC2)c2ccc(F)cc12" : 1.2

---

# method: passive permeability, PAMPA, ADME assay (AID 1508612)
# conditionInfo: pH 7.4, 30.0 min, 50.0 µM
Response field label takes t when Papp is strictly below 400 ×10⁻⁶ cm/s and f in all other cases.

Consider the following illustrative entries.
molecule: CCOC(=O)c1ccc(N2C(=O)c3[nH]nc(-c4ccc(OC)cc4)c3C2c2ccc(C)cc2)cc1 (stereo not given)
assignedLabel: t
//
molecule: CC(C)(C)n1cnc2cc(C(=O)N3CCCCC3)ccc21
assignedLabel: t
//
molecule: CC1CCCCN1c1ncnc(N)c1[N+](=O)[O-] (stereo not given)
assignedLabel: t
//
molecule: CCOC(=O)c1cnc2ccc(-c3cncc(NS(=O)(=O)c4ccccc4)c3)cn12
assignedLabel: f
//
molecule: COc1c(Cl)cc2c([nH]c3cnccc32)c1NC(=O)c1cccnc1C
assignedLabel: f
//
molecule: Cc1cc(SCc2sc(-c3ccc(C(F)(F)F)c(F)c3)nc2C)ccc1OCC(=O)O
assignedLabel: f
//
molecule: CC(C)c1ccc(S(=O)(=O)c2cnc(SCC(=O)Nc3ccc4c(c3)OCCO4)[nH]c2=O)cc1
assignedLabel: t
//
molecule: O=[S+]([O-])(Nc1ccc(N2CCNCC2)cc1)c1ccc(NCc2ccc(Cl)cc2O)cc1
assignedLabel: t

Quick check: does "COc1cccc(-c2csc(N3CCC(C(N)=O)CC3)n2)c1" have Papp under 400 ×10⁻⁶ cm/s?
f

Quick check: does "O=C1Nc2ccc(C(=O)c3ccco3)cc2/C1=C/c1cc(Cl)c(O)c(Cl)c1" have Papp under 400 ×10⁻⁶ cm/s?
t

---

# method: passive permeability, PAMPA, ADME assay (AID 1508612)
# conditionInfo: pH 7.4, 30.0 min, 50.0 µM
observable: Papp (×10⁻⁶ cm/s)
One number for each entry, in ×10⁻⁶ cm/s.

// known answers, use as guide
compound: CC(C)N(CCCNC(=O)Nc1ccc(C(C)(C)C)cc1)C[C@H]1O[C@@H](n2ccc3c(N)ncnc32)[C@H](O)[C@@H]1O
unitDescriptor: ×10⁻⁶ cm/s
Papp: 10.7
--
compound: O=C(NCCO)c1cccc(-c2cc(Nc3ccc(OC(F)(F)F)cc3)ncn2)c1
unitDescriptor: ×10⁻⁶ cm/s
Papp: 472
--
compound: COC1C(OC(=O)c2ccc(C)[nH]2)C(O)C(Oc2ccc3c(O)c(NC(=O)c4ccc(O)c(CC=C(C)C)c4)c(=O)oc3c2Cl)OC1(C)C (centres undefined)
unitDescriptor: ×10⁻⁶ cm/s
Papp: 7.04
--
compound: C[C@@]12O[C@@H](C[C@]1(O)CO)n1c3ccccc3c3c4c(c5c6ccccc6n2c5c31)CNC4=O
unitDescriptor: ×10⁻⁶ cm/s
Papp: 7.06
--
compound: Cc1ccc(S(=O)(=O)Nc2cnccc2C(=O)Nc2nc(-c3cccnc3)cs2)cc1
unitDescriptor: ×10⁻⁶ cm/s
Papp: 104

With those in mind, consider the next compound.
Measured Papp, "O=[S+]([O-])(Nc1ccccc1)c1ccc(NCc2ccc(Cl)cc2O)cc1" : 524
